# System: MC3T3-E1
# ASSAY OVERVIEW: Cytotoxicity against mouse MC3T3-E1 cells assessed as cell number at 60 uM measured after 4 days by WST-8 assay relative to control
# Type: cell-based
# EXPERIMENTAL SETUP: mc3t3-e1, 96 h
PROPERTY NAME: fold change (FC)

Endpoint output: fold change (FC) of COc1cc(/C=C/c2ccccc2)oc(=O)c1 . Value?
0.85 to 1.25

----------
# System: MC3T3-E1
# ASSAY OVERVIEW: Osteogenic activity in mouse MC3T3-E1 cells assessed as increase in ALP activity at 30 uM measured after 4 days relative to control
# Format: functional
Active and inactive are the calls of the source. The calls are words filed in the database; no cut-off is given here.
PROPERTY NAME: Activity

Example compounds with recorded Activity:
MOL SMILES	ASSAYED SYSTEM	Activity
COc1cc(/C=C/c2ccc(C)cc2)oc(=O)c1	MC3T3-E1	Active
COc1cc(/C=C/c2ccsc2)oc(=O)c1	MC3T3-E1	inactive
COc1cc(/C=C/c2ccccc2C)oc(=O)c1	MC3T3-E1	Active
COc1ccc(/C=C/c2cc(OC)cc(=O)o2)cc1	MC3T3-E1	inactive
CCc1ccccc1/C=C/c1cc(OC)cc(=O)o1	MC3T3-E1	inactive
CCc1cccc(/C=C/c2cc(OC)cc(=O)o2)c1	MC3T3-E1	Active

Short answer please: Activity, MC3T3-E1, entry COc1cc(/C=C/C2CC2)oc(=O)c1
inactive

What measured Activity is associated with COc1cc(/C=C/c2cccc(C)c2)oc(=O)c1 on MC3T3-E1?
Active

Please state recorded Activity (tested on MC3T3-E1) of COc1cc(/C=C/C2CCCC2)oc(=O)c1
inactive

Value wanted: Activity (MC3T3-E1) of entry COc1cc(/C=C/c2ccc(F)cc2)oc(=O)c1
inactive

Under MC3T3-E1: Activity value of CCCCc1ccc(/C=C/c2cc(OC)cc(=O)o2)cc1 ?
Active
